Recorded MIC for the following compounds
- Tested on: VRE 1008
- Type: cell-based, Enterococcus faecalis
Bridge positions count the residues as written; N and C are the ends. Square brackets hold non-standard residues; d marks the D form. Peptide text beside a SMILES is read from it. ξ: configuration not given here. dNMeF = CN[C@H](Cc1ccccc1)C(=O)O; Ile(3ξ) = CCC(C)[C@H](N)C(=O)O
Give your result in µg/mL as a bare value.

Compound: CCC(C)[C@@H]1NC(=O)[C@H](C)NC(=O)[C@H](NC(=O)[C@H](CO)NC(=O)[C@@H](NC(=O)[C@H](NC(=O)[C@@H](CCCNC(=N)N)NC(=O)[C@H](CO)NC(=O)[C@@H](NC(=O)[C@@H](Cc2ccccc2)NC)[C@@H](C)CC)[C@H](C)CC)[C@@H](C)CC)[C@H](C)OC(=O)[C@H]([C@@H](C)CC)NC1=O (stereo partly shown)
MIC (µg/mL): 0.5
//
Compound: CCC(C)[C@@H]1NC(=O)[C@H](CCCNC(=N)N)NC(=O)[C@H](NC(=O)[C@H](CO)NC(=O)[C@@H](NC(=O)[C@H](NC(=O)[C@@H](CCC(N)=O)NC(=O)[C@H](CO)NC(=O)[C@@H](NC(=O)[C@@H](Cc2ccccc2)NC)[C@@H](C)CC)[C@H](C)CC)[C@@H](C)CC)[C@H](C)OC(=O)[C@H]([C@@H](C)CC)NC1=O (stereo partly shown) [Compound 34, Arg9-Ile10-teixobactin] (H-[dNMeF]IS[dQ][dI]IS[dT]R[Ile(3ξ)]I; ester 8-C)
MIC (µg/mL): 1
//
Compound: CC[C@@H](C)[C@@H](NC(=O)[C@@H](CCC(N)=O)NC(=O)[C@H](CCCNC(=N)N)NC(=O)[C@@H](NC(=O)[C@@H](Cc1ccccc1)NC)[C@@H](C)CC)C(=O)N[C@H](C(=O)N[C@@H](CO)C(=O)N[C@H]1C(=O)N[C@@H](CCCNC(=N)N)C(=O)N[C@@H](CC(C)C)C(=O)N[C@@H]([C@@H](C)CC)C(=O)O[C@H]1C)[C@@H](C)CC [Compound 29, Arg3-Arg9-Leu10-teixobactin] (H-[dNMeF]IR[dQ][dI]IS[dT]RLI; ester 8-C)
MIC (µg/mL): 0.5

# ---- query compound ----
Lab note: measured MIC of CC[C@@H](C)[C@@H](NC(=O)[C@@H](CCC(N)=O)NC(=O)[C@H](CO)NC(=O)[C@@H](NC(=O)[C@@H](Cc1ccccc1)NC)[C@@H](C)CC)C(=O)N[C@H](C(=O)N[C@@H](CO)C(=O)N[C@H]1C(=O)N[C@@H](CCCNC(=N)N)C(=O)N[C@@H](CC(C)C)C(=O)N[C@@H]([C@@H](C)CC)C(=O)O[C@H]1C)[C@@H](C)CC [Compound 27, Arg9-Leu10-teixobactin] (H-[dNMeF]IS[dQ][dI]IS[dT]RLI; ester 8-C) was 0.25

----------
# MIC per record follows
- Test system: MRSA DR 42412 (sputum)
- Measurement protocol: microbe, parasite or virus in culture
- Cond: DR 42412 (sputum)
Bridge positions count the residues as written; N and C are the ends. Square brackets hold non-standard residues; d marks the D form. Peptide text beside a SMILES is read from it. ξ: configuration not given here. dNMeF = CN[C@H](Cc1ccccc1)C(=O)O; Ile(3ξ) = CCC(C)[C@H](N)C(=O)O
Note: unit µg/mL is implicit; provide only the numeric part.

Molecule: CCC(C)[C@@H]1NC(=O)[C@H](CCCNC(=N)N)NC(=O)[C@H](NC(=O)[C@H](CO)NC(=O)[C@@H](NC(=O)[C@H](NC(=O)[C@@H](CCC(N)=O)NC(=O)[C@H](CO)NC(=O)[C@@H](NC(=O)[C@@H](Cc2ccccc2)NC)[C@@H](C)CC)[C@H](C)CC)[C@@H](C)CC)[C@H](C)OC(=O)[C@H]([C@@H](C)CC)NC1=O (some centres unmarked) [Compound 34, Arg9-Ile10-teixobactin] (H-[dNMeF]IS[dQ][dI]IS[dT]R[Ile(3ξ)]I; ester 8-C)
Target of assay: MRSA DR 42412 (sputum)
MIC [µg/mL]: 0.125

// field: MIC; key: CC[C@@H](C)[C@@H](NC(=O)[C@@H](CCC(N)=O)NC(=O)[C@H](CCCNC(=N)N)NC(=O)[C@@H](NC(=O)[C@@H](Cc1ccccc1)NC)[C@@H](C)CC)C(=O)N[C@H](C(=O)N[C@@H](CO)C(=O)N[C@H]1C(=O)N[C@@H](CCCNC(=N)N)C(=O)N[C@@H](CC(C)C)C(=O)N[C@@H]([C@@H](C)CC)C(=O)O[C@H]1C)[C@@H](C)CC [Compound 29, Arg3-Arg9-Leu10-teixobactin] (H-[dNMeF]IR[dQ][dI]IS[dT]RLI; ester 8-C) ; value = 0.25

The recorded MIC for CC[C@@H](C)[C@@H](NC(=O)[C@@H](CCCNC(=N)N)NC(=O)[C@H](CCCNC(=N)N)NC(=O)[C@@H](NC(=O)[C@@H](Cc1ccccc1)NC)[C@@H](C)CC)C(=O)N[C@H](C(=O)N[C@@H](CO)C(=O)N[C@H]1C(=O)N[C@@H](CCCNC(=N)N)C(=O)N[C@@H](CC(C)C)C(=O)N[C@@H]([C@@H](C)CC)C(=O)O[C@H]1C)[C@@H](C)CC [Compound 31, Arg3-D-Arg4-Arg9-Leu10-teixobactin] (H-[dNMeF]IR[dR][dI]IS[dT]RLI; ester 8-C) is 2

// sample CC[C@@H](C)[C@@H](NC(=O)[C@@H](CCC(N)=O)NC(=O)[C@H](CO)NC(=O)[C@@H](NC(=O)[C@@H](Cc1ccccc1)NC)[C@@H](C)CC)C(=O)N[C@H](C(=O)N[C@@H](CO)C(=O)N[C@H]1C(=O)N[C@@H](C)C(=O)N[C@@H](C(C)C)C(=O)N[C@@H]([C@@H](C)CC)C(=O)O[C@H]1C)[C@@H](C)CC [Compound 17] , its MIC was 0.5

Recorded values, source patent US20240327463A1.
